The following binders are listed with their measured Positive rates values.
- test_system: T1, B7H3 (CD276) on MC38-CD276+ cells
- T1 construct: whole, on cells; MC38-CD276KO cells served as the negative control; also called MC38-B7H3+
- T1 sequence (Q5ZPR3 1-534, species assumed, looked up): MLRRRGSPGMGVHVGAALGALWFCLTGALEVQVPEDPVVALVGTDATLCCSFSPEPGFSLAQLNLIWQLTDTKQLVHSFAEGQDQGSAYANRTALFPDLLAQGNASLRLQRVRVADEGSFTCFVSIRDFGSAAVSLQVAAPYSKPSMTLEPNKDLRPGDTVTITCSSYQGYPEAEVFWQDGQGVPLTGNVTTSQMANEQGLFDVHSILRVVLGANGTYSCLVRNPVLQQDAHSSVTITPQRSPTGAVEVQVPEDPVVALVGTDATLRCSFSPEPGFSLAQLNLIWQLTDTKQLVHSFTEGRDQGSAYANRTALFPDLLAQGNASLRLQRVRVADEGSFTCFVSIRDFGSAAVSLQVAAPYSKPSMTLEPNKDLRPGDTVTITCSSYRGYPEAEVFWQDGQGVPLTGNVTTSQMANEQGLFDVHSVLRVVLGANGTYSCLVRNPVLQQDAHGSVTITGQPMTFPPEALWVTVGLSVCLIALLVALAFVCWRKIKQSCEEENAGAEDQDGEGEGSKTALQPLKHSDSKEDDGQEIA
- assay_notes: flow cytometry on MC38-CD276+ cells, VHH at 50 ug/ml
parameter: Positive rates (%)

[[record]]
binder = "RWG8 (VHH, Camel VHH; tag not described; also called camel antibody RWG8) VHH: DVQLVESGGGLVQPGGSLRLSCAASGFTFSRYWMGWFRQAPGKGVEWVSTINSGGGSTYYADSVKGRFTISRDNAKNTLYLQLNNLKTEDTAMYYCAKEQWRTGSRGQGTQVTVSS"
units_of_measure = "%"
value_reported = 26.5

[[record]]
binder = "RWC4 (VHH, Camel VHH; tag not described; also called camel antibody RWC4) VHH: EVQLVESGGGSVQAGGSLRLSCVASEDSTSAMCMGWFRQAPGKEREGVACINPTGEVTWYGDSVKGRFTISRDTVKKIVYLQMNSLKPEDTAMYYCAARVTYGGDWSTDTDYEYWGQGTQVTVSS"
units_of_measure = "%"
value_reported = 98.8

[[record]]
binder = "RWD5 (VHH, Camel VHH; tag not described; also called RWDS [sic]; camel antibody RWD5) VHH: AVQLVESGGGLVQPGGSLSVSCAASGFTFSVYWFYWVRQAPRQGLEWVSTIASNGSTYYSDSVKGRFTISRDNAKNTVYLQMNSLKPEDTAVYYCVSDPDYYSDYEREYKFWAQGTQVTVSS"
units_of_measure = "%"
value_reported = 88.9

[[record]]
binder = "RWG4 (VHH, Camel VHH; tag not described; also called camel antibody RWG4) VHH: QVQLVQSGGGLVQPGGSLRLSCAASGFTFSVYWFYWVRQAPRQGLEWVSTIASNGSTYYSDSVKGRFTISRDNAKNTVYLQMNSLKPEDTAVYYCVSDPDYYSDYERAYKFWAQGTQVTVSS"
units_of_measure = "%"
value_reported = 91.5

[[record]]
binder = "RWB12 (VHH, Camel VHH; tag not described; also called camel antibody RWB12) VHH: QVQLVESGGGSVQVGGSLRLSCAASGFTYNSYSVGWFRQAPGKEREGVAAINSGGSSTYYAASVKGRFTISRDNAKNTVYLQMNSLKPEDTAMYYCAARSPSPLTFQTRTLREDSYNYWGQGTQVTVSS"
units_of_measure = "%"
value_reported = 12

